TARGET OR TEST SYSTEM: T1, recombinant human GPC1 protein (R&D Systems) (human, UniProt P35052 24-530)
T1 construct: Bought recombinant protein (R&D Systems); also called human GPC-1 antigen; Glypican-1
T1 sequence: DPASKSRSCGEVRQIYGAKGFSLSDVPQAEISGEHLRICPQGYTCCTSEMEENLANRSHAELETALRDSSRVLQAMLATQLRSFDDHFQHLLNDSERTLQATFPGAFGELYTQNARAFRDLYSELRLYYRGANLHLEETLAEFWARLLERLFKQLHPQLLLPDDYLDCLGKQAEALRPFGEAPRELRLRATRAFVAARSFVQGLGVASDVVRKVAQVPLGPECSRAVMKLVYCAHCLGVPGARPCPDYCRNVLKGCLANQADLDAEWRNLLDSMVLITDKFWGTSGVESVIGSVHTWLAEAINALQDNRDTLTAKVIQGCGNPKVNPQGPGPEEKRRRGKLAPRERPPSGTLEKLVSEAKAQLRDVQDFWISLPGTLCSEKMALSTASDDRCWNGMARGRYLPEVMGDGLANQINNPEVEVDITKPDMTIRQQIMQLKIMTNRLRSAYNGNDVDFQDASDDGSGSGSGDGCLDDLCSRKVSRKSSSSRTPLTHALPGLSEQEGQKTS
ASSAY: SPR (Biacore 8K); antibody captured by anti-human IgG (Fc) on a CM5 chip, recombinant human GPC1 flowed over
This listing pairs binders with measured koff.

A selection of reference data follows.
1. humanized anti-GPC1 monoclonal antibody clone T3 (antibody, human IgG4 S228P, kappa, V domains shown, IgG) VH: QVQLVQSGAEVKKPGASVKVSCKASGYTFTGYYMHWVRQAPGQGLEWMGEINPSTGDTTYNQKFKARVTMTRDTSTSTVYMELSSLRSEDTAVYYCAREKRDDGVFAYWGQGTLVTVSS VL: DIVMTQSPSSVSASVGDRVSITCRASEHINGWLAWYQQIPGKAPRILISSASILQSGAPSRFSGSGFGTDFTLTISSVQPEDFATYYCQQAKSYPLTFGGGTKVEIKR | 0.000713 s⁻¹
2. humanized anti-GPC1 monoclonal antibody clone T33 (antibody, human IgG4 S228P, kappa, V domains shown, IgG) VH: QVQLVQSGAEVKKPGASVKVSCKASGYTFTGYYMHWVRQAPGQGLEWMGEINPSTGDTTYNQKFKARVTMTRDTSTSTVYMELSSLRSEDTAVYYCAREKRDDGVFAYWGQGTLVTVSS VL: DVVMTQSPATLSVPPGDRATLSCRASQSVSSRLAWYQQKPGQAPKLLIYGASTRATGIPARFSGSWSGTEFTLTVSSLQSEDSAVYYCQQYNDWPRYTFGQGTKLEIKR | 0.0738 s⁻¹

*Q* Tell me koff reported for humanized anti-GPC1 monoclonal antibody clone T1 (antibody, human IgG4 S228P, kappa, V domains shown, IgG) VH: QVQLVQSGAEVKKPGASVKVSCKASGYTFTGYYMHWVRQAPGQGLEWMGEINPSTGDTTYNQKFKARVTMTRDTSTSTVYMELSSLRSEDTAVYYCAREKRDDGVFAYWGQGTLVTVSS VL: DIVMTQSPSFLSASVGDRVTITCRASQGISSYLVWYQQKPGKAPKLLIYSASVLQSGVPSRFSGRGYGTDFTLTISSLQPEDFATYYCQQSFSIPPVTFGGGTKVEIKR
*A* 0.00134 s⁻¹

*Q* Return the recorded koff value; entry: humanized anti-GPC1 monoclonal antibody clone T28 (antibody, human IgG4 S228P, kappa, V domains shown, IgG) VH: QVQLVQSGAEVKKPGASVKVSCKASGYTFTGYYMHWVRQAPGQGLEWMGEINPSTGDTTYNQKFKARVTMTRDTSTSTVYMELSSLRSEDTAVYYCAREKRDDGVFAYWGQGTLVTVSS VL: DIQMTQSPSSLSASLGEMVTITCRASESIHSYLNWYQQKPGKAPNLLIYDASNLESGVPSRFSGSGYGTDFTLTISSLQPEDFATYYCQQSYGPPITFGQGTRLEIKR
*A* 0.00679 s⁻¹

*Q* Annotate the binder humanized anti-GPC1 antibody (clone T2) (antibody, human IgG4 S228P, kappa, V domains shown, IgG; also called humanized anti-GPC1 antibody (T2); unlabeled antibody) VH: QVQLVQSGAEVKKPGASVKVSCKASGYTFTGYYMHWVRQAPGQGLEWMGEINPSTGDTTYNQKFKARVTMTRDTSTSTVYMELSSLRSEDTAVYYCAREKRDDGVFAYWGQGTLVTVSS VL: DIVMTQSPSFLSASVGDRVTITCRASQGISSYLVWYQQKPGKPPKLLIYSASVLQSGVPSRFSGRGYGTDFTLTISSLQPEDFATYYCQQSFSIPPVTFGGGTKVEIKR with its measured koff.
*A* 0.00125 s⁻¹
